# System Tested: Cytochrome P450 2D6 (Homo sapiens)
# Protocol Summary: Cytochrome P450 family 2 subfamily D member 6 (CYP2D6) small molecule antagonists: luciferase biochemical (cell-free) qHTS assay (AID 1645840); note: nearly all actives have a fitted effect of over 55% in size
# Condition Set: P450-Glo CYP2D6 enzyme, luciferin luminescence, 1 h; series mostly up to 57.4 µM
Records with an inconclusive call do not appear. Activity calls are given as the source filed them. Calls come from the whole dose curve; as a rule, active = well fitted inhibition curve with a large enough effect in the repeat runs; inconclusive = weak or mixed curves; inactive = flat fitted curve, though single readings scatter.
Outcome codes: active, inactive

> print(dat)
                                   compound  answer.label
1  Cc1ccc(C(=O)Nc2ccc(CN3CCN(C)CC3)c(C(F)(F)F)c2)cc1C#Cc1cnc2cccnn12        active
2  COc1ccc(-c2cc3c(C)nc(N)nc3n(C3CCC(OCCO)CC3)c2=O)cn1 (centres undefined)      inactive
3              C1Cc2[nH]nc(-c3nn[nH]n3)c2C1      inactive
4  O=C(Nc1cn[nH]c1-c1nc2ccc(CN3CCOCC3)cc2[nH]1)NC1CC1      inactive
5  COc1cc2nccc(Oc3ccc(NC(=O)C4(C(=O)Nc5ccc(F)cc5)CC4)cc3)c2cc1OC      inactive
6  CNC(=O)c1ccc(N2C(=S)N(c3cnc(C#N)c(C(F)(F)F)c3)C(=O)C23CCC3)cc1F      inactive
7  Cc1ccc2nc(NC(=O)CSc3nc4c(c(=O)n3-c3ccccc3)SCC4)sc2c1      inactive
8  COc1cccc2c(NCc3ccccc3)nc(-n3c(N)nc4ccccc43)nc12        active
9             Nc1ccc(S(=O)(=O)Nc2ncccn2)cc1      inactive

###

# System: CAOV3
# Protocol Summary: Primary qHTS to identify gynecologic anti-cancer compounds using libraries of approved drugs and bioactive compounds (AID 1345084); note: nearly all actives have a fitted effect of over 55% in size
# Condition Set: Gynecologic cancer cell panel viability, ATPlite luminescence, 48 h; series mostly up to 57.5 µM
Results filed as inconclusive are left out. Active and inactive are the calls of the source. Calls come from the whole dose curve; as a rule, active = well fitted cell-killing curve with a large enough effect; inconclusive = small, poorly fitted or top-dose-only effect, or effect the other way; inactive = flat fitted curve, though single readings scatter.
Outcome codes: active, inactive

Compound	System Tested	Answer Label
CCCCCN(CCC12CC3CC(CC(C3)C1)C2)C(=O)NCCCc1ccncc1	CAOV3	inactive
CNC(=O)c1ccc(N2C(=S)N(c3cnc(C#N)c(C(F)(F)F)c3)C(=O)C23CCC3)cc1F	CAOV3	inactive
CC[C@@]1(O)C(=O)OCc2c1cc1n(c2=O)Cc2cc3cc(O)ccc3nc2-1	CAOV3	active
CNC(=O)c1cc(Oc2ccc(NC(=O)Nc3cc(C(C)(C)C)nn3-c3ccc4ncccc4c3)c(F)c2)ccn1	CAOV3	inactive
COc1ccc(C(=O)CC2(O)C(=O)Nc3c(Cl)ccc(Cl)c32)cc1 (centres undefined)	CAOV3	inactive
O=C(O)CCCc1c[nH]c2ccccc12	CAOV3	inactive
CS(=O)(=O)N1CCN(Cc2cc3nc(-c4cccc5[nH]ncc45)nc(N4CCOCC4)c3s2)CC1	CAOV3	inactive
Cc1cc(Nc2cc(CN3CCOCC3)c3nc(C)c(Cc4ccc(Cl)cc4F)n3n2)n[nH]1	CAOV3	inactive
CCCCOc1c(C(=O)c2c(F)cc(C)cc2F)cnc2n[nH]cc12	CAOV3	inactive
Fc1cc(-c2cccc3ncc(-c4cnn(C5CCNCC5)c4)nc23)cc(F)c1CN1CCOCC1	CAOV3	active
COc1cc2c(NC3CCN(C(C)C)CC3)nc(C3CCCCC3)nc2cc1OCCCN1CCCC1	CAOV3	active
CC(C)c1cc(C(=O)N2Cc3ccc(CN4CCN(C)CC4)cc3C2)c(O)cc1O	CAOV3	active
CN(C)CC(C)(C)CNc1nn2c(-c3ccccc3)nnc2cc1C1CCC1	CAOV3	inactive
Clc1cccc(-n2nnnc2NCc2ccccc2Oc2ccccn2)c1Cl	CAOV3	inactive
CC1(C)CCC(c2ccc(Cl)cc2)=C(CN2CCN(c3ccc(C(=O)NS(=O)(=O)c4ccc(N[C@H](CCN5CCOCC5)CSc5ccccc5)c(S(=O)(=O)C(F)(F)F)c4)cc3)CC2)C1	CAOV3	active
CCc1c2c(nc3ccc(O)cc13)-c1cc3c(c(=O)n1C2)COC(=O)[C@]3(O)CC	CAOV3	active
Cc1ccc(C(=O)Nc2cccc(C(F)(F)F)c2)cc1-c1ccc2nc(NCCN3CCOCC3)ncc2c1	CAOV3	active
CCn1nnc2c(N3CCOCC3)nc(-c3ccc(NC(=O)Nc4ccc(C(=O)N5CCN(C)CC5)cc4)cc3)nc21	CAOV3	active
COC(=O)Nc1nc2ccc(C(=O)c3ccc(F)cc3)cc2[nH]1	CAOV3	inactive
